- targetOrTestSystem: Calpain I (Homo sapiens)
- Construct: made in house
- assayDetails: Inhibition of calpain I activity (Succ-Leu-Tyr-MNA substrate hydrolysis, fluorescence)
- Format: biochemical
- measurementSetup: Table II; calpain I, 0.2 mM Succ-Leu-Tyr-MNA, pH 7.5; * mixture of diastereomers, a,b single diastereomers; read-out: IC50
pIC50: −log10 of the molar value.
endpoint: pIC50

CN1C(C(=O)N[C@H](C=O)CCCCNS(=O)(=O)c2ccccc2)Cc2cc3c(cc2S1(=O)=O)OCCO3 (stereo partly drawn) [Cpd 12y] : 6.97
CN1C(C(=O)N[C@H](C=O)Cc2ccccc2)Cc2cc3c(cc2S1(=O)=O)OCCO3 (stereo partly drawn) [Cpd 12r] : 7.62
CN1C(C(=O)N[C@H](C=O)Cc2ccccc2)Cc2cc(N3CCOCC3)ccc2S1(=O)=O (stereo partly drawn) [Cpd 12aa] : 7.52
COc1cc2c(cc1OC)S(=O)(=O)N(C)C(C(=O)N[C@H](C=O)Cc1ccccc1)C2 (stereo partly drawn) [Cpd 12e] : 6.70
CN1C(C(=O)N[C@H](C=O)Cc2ccccc2)Cc2ccccc2S1(=O)=O (stereo partly drawn) [Cpd 12j] : 6.96
CN1C(C(=O)N[C@H](C=O)Cc2ccccc2)Cc2ccccc2S1(=O)=O (stereo partly drawn) [Cpd 12i] : 7.55

P: COc1cc2c(cc1OC)S(=O)(=O)OC(C(=O)N[C@H](C=O)CC(C)C)C2 (stereo partly drawn) [Cpd 12a]
Q: COc1cc2c(cc1OC)S(=O)(=O)OC(C(=O)N[C@H](C=O)Cc1ccccc1)C2 (stereo partly drawn) [Cpd 12b]
IN: I'm curious, which of these has a smaller pIC50 number: P or Q ? State your choice using its label.
OUT: P

* * *

- targetOrTestSystem: Calpain I (Homo sapiens, UniProt P07384)
- Construct: made in house
- assayDetails: Inhibition of calpain I activity (Succ-Leu-Tyr-MNA substrate hydrolysis, fluorescence)
- Assay type: biochemical
- measurementSetup: Table VI; calpain I, 0.2 mM Succ-Leu-Tyr-MNA, pH 7.5; read-out: IC50
pIC50: −log10 of the molar value.
endpoint: pIC50

1: O=C[C@H](Cc1ccccc1)NC(=O)C1=Nc2cc3c(cc2S(=O)(=O)N1)OCCO3 [Cpd 42b]
2: O=C[C@H](Cc1ccccc1)NC(=O)C1=Nc2ccccc2S(=O)(=O)N1 [Cpd 42a]
IN: Of the two listed items, 1 and 2 , which carries the larger pIC50 figure? Give the chosen item's label as your response.
OUT: 1

* * *

- targetOrTestSystem: Calpain I (Homo sapiens)
- Construct: made in house
- Sequence (P07384 1-714): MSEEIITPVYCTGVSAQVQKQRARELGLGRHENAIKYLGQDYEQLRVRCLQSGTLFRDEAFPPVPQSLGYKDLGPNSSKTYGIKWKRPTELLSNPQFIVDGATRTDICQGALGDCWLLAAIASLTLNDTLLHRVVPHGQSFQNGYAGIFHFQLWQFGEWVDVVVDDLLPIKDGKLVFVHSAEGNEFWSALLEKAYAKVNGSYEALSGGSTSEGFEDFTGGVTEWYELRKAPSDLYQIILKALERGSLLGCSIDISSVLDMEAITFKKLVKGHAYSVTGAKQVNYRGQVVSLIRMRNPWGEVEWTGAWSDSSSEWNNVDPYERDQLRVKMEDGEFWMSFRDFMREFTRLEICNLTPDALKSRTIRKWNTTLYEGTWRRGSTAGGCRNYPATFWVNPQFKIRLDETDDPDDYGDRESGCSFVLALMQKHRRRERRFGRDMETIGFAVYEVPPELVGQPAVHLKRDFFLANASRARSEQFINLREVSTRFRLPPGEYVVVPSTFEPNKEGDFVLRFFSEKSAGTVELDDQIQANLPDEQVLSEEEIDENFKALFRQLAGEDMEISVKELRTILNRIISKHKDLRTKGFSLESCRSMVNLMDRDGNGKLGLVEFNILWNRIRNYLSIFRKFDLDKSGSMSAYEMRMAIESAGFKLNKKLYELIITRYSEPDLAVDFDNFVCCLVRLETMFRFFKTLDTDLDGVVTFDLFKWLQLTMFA
- Sequence (P04632 1-268 partner): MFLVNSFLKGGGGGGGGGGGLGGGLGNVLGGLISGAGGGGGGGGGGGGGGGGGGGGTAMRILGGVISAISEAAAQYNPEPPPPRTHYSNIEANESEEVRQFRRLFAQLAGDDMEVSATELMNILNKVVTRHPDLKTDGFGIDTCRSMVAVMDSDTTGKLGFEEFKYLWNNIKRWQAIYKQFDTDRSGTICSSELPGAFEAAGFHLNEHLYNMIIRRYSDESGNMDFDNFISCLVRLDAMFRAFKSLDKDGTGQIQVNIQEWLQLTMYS
- assayDetails: Inhibition of calpain I activity (Succ-Leu-Tyr-MNA substrate hydrolysis, fluorescence)
- Assay type: biochemical
- measurementSetup: Table III; calpain I, 0.2 mM Succ-Leu-Tyr-MNA, pH 7.5; * mixture of diastereomers, a,b single diastereomers; read-out: IC50
endpoint: IC50 (µM)

O=C(NCCNS(=O)(=O)c1ccccc1)C(=O)[C@H](Cc1ccccc1)NC(=O)C1Cc2cc3c(cc2S(=O)(=O)N1)OCCO3 (stereo partly shown) [Cpd 14AE] : 0.076

I: CCN1C(C(=O)N[C@@H](Cc2ccccc2)C(=O)C(=O)NCCNS(=O)(=O)c2ccc(-c3ccccn3)s2)Cc2cc3c(cc2S1(=O)=O)OCCO3 (stereo partly shown) [Cpd 14Y]
II: CCNC(=O)C(=O)[C@H](Cc1ccccc1)NC(=O)C1Cc2cc3c(cc2S(=O)(=O)N1CC)OCCO3 (stereo partly shown) [Cpd 14D]
III: CCN1C(C(=O)N[C@@H](Cc2ccccc2)C(=O)C(=O)NCCCNS(=O)(=O)c2ccc([N+](=O)[O-])cc2)Cc2cc3c(cc2S1(=O)=O)OCCO3 (stereo partly shown) [Cpd 14U]
IN: # rank by IC50, ascending (min first) # the answer lists labels in the order requested
OUT: I, III, II

I: CCN1C(C(=O)N[C@@H](Cc2ccccc2)C(=O)C(=O)NCCNS(=O)(=O)c2ccc(F)cc2)Cc2cc3c(cc2S1(=O)=O)OCCO3 (stereo partly shown) [Cpd 14AC]
II: CCN1C(C(=O)N[C@@H](Cc2ccccc2)C(=O)C(=O)NCCNS(=O)(=O)c2ccc([N+](=O)[O-])cc2)Cc2cc3c(cc2S1(=O)=O)OCCO3 (stereo partly shown) [Cpd 14T]
IN: Which item exceeds the other in IC50, I or II ? Pick one and reply with its label.
OUT: II
(II: 0.047 µM, I: 0.029 µM)

1: CCN1C(C(=O)N[C@@H](Cc2ccccc2)C(=O)C(=O)NCCNS(C)(=O)=O)Cc2cc3c(cc2S1(=O)=O)OCCO3 (stereo partly shown) [Cpd 14S]
2: CCN1C(C(=O)N[C@@H](Cc2ccccc2)C(=O)C(=O)NCCCNS(=O)(=O)c2ccccc2)Cc2cc3c(cc2S1(=O)=O)OCCO3 (stereo partly shown) [Cpd 14AA]
3: CCN1C(C(=O)N[C@@H](Cc2ccccc2)C(=O)C(=O)NCCCNS(=O)(=O)c2ccc(Cl)c(Cl)c2)Cc2cc3c(cc2S1(=O)=O)OCCO3 (stereo partly shown) [Cpd 14W]
IN: Exam item: list the entries in increasing order of IC50. Rank the items, then write their labels in that order.
OUT: 2, 3, 1
(2: 0.035 µM, 3: 0.056 µM, 1: 0.089 µM)

* * *

- targetOrTestSystem: Calpain I (Homo sapiens, UniProt P07384)
- Construct: made in house
- assayDetails: Inhibition of calpain I activity (Succ-Leu-Tyr-MNA substrate hydrolysis, fluorescence)
- Type: biochemical
- measurementSetup: Table V; calpain I, 0.2 mM Succ-Leu-Tyr-MNA, pH 7.5; * mixture of diastereomers, a,b single diastereomers; read-out: IC50
pIC50: −log10 of the molar value.
endpoint: pIC50

CCCN1c2ccccc2S(=O)(=O)N(CC)C1C(=O)N[C@H](C=O)Cc1ccccc1 (single isomer, unassigned) [Cpd 35b] : ~5.52

For this compound ( CCCCNC(=O)C(=O)[C@H](Cc1ccccc1)NC(=O)C1Nc2ccccc2S(=O)(=O)N1C (some centres unmarked) [Cpd 35e] ), measured pIC50 is ~5.70

Measured pIC50 of CCN1C(C(=O)N[C@H](C=O)Cc2ccccc2)N(Cc2ccccc2)c2ccccc2S1(=O)=O (single isomer, unassigned) [Cpd 35c] : ~5.00

Sure, the documented pIC50 for CCN1C(C(=O)N[C@H](C=O)Cc2ccccc2)N(Cc2ccccc2)c2ccccc2S1(=O)=O (single isomer, unassigned) [Cpd 35d] is ~6.00

Given item CCCN1c2ccccc2S(=O)(=O)N(CC)C1C(=O)N[C@H](C=O)Cc1ccccc1 (single isomer, unassigned) [Cpd 35a] , the value recorded as its pIC50 is ~6.00

* * *

- targetOrTestSystem: Calpain I (Homo sapiens, UniProt P07384)
- Construct: made in house
- assayDetails: Inhibition of calpain I activity (Succ-Leu-Tyr-MNA substrate hydrolysis, fluorescence)
- Format: biochemical
- measurementSetup: Example 187, in text; bisulfite addition compound; read-out: IC50 (calpain)
endpoint: pIC50
FYI, pIC50 means -log10 of a concentration in mol per litre.

Record summary for CCN1C(C(=O)N[C@@H](Cc2ccccc2)C(O)S(=O)(=O)O)Cc2cc3c(cc2S1(=O)=O)OCCO3 (stereo partly shown) : reported pIC50 = 8.10

The reported numbers originate from patent US5952328A.
